Measured melting point by item

Use these answered entries as a reference point.
The molecule listed as Cc1ccc2oc(=O)c3c(c2c1)OC(N)=C(C#N)C3c1ccc([N+](=O)[O-])cc1 (racemic) [2a] shows melting point equal to 259 to 261 °C

Summary for this molecule, Cc1ccc2oc(=O)c3c(c2c1)OC(/N=C/c1ccc(Cl)cc1Cl)=C(C#N)C3c1ccco1 (racemic) [5f] : melting point is > 300 °C

Briefly, melting point measured for COc1ccc(/C=C/C(=O)c2ccc(NS(=O)(=O)c3c(O)c4cc(Cl)ccc4oc3=O)cc2)cc1 [9e] : > 300 °C

Others:
Entry Cc1ccc2oc(=O)c3c(c2c1)OC(/N=C/c1ccccc1)=C(C#N)C3c1ccc([N+](=O)[O-])cc1 (racemic) [5a] ; melting point = 208 to 209 °C

The value of melting point measured for the molecule O=c1oc2ccc(Cl)cc2c(O)c1S(=O)(=O)Nc1ccc(O)cc1 [8c] turned out to be 250 to 251 °C

* * *

We begin with a simple list: items and their reported % Inhibition (proteinase).
Test system: trypsin
Assay: Proteinase-inhibitory activity
Format: biochemical
Details: 250 µg/mL; mean ± SD (n = 3)
Could you write the number and then its unit?

Consider the worked cases shown below.
Documented % Inhibition (proteinase) of Cc1ccc2oc(=O)c(S(=O)(=O)Nc3ccc(S(=O)(=O)Nc4nccs4)cc3)c(O)c2c1 [7f] : 43.88 ± 5.6%

Per the records, this compound ( Cc1ccc2oc(=O)c(S(=O)(=O)Nc3ccc(O)cc3)c(O)c2c1 [8d] ) has % Inhibition (proteinase) equal to 20.15 ± 7.31%

We next turn to a different compound, shown below.
Measured % Inhibition (proteinase) of Cc1ccc2oc(=O)c3c(c2c1)OC(N)=C(C(N)=O)C3c1ccco1 (racemic) [3b] : 49.28 ± 10.93%

* * *

Test system: Staphylococcus aureus ATCC 29213
metric: MIC (µg/mL)
Only the number, expressed in µg/mL, is required.

Some compounds with known MIC results, for comparison:
MIC of O=c1oc2ccc(Cl)cc2c(O)c1S(=O)(=O)Nc1ccccc1 , assay on Staphylococcus aureus ATCC 29213, is 500

Reported MIC (Staphylococcus aureus ATCC 29213) for entry COc1ccc(/C=C/C(=O)c2ccc(NS(=O)(=O)c3c(O)c4cc(Cl)ccc4oc3=O)cc2)cc1 is 500

The compound O=C(O)c1cn(C2CC2)c2cc(N3CCNCC3)c(F)cc2c1=O [Ciprofloxacin, reference compound] , when measured on Staphylococcus aureus ATCC 29213, yielded MIC of 125

With Staphylococcus aureus ATCC 29213 as the test system, Cc1ccc2oc(=O)c(S(=O)(=O)Nc3ccc(S(=O)(=O)Nc4ncccn4)cc3)c(O)c2c1 showed MIC of 125

The recorded MIC with Staphylococcus aureus ATCC 29213 for O=c1oc2ccc(Cl)cc2c(O)c1S(=O)(=O)Nc1ccc(S(=O)(=O)Nc2ncccn2)cc1 was 125

Kindly note: Staphylococcus aureus ATCC 29213, Cc1ccc2oc(=O)c(S(=O)(=O)Nc3ccc(O)cc3)c(O)c2c1 , MIC value reported: 125

Tested on Staphylococcus aureus ATCC 29213: NS(=O)(=O)c1ccc(NS(=O)(=O)c2c(O)c3cc(Cl)ccc3oc2=O)cc1 . Observed MIC: 250

Param item: Cc1ccc2oc(=O)c(S(=O)(=O)Nc3ccc(C(=O)/C=C/c4ccc(Cl)cc4)cc3)c(O)c2c1 ; param system: Staphylococcus aureus ATCC 29213; output MIC: 250

More entries:
Case O=c1oc2ccc(Cl)cc2c(O)c1S(=O)(=O)Nc1ccc(O)cc1 , Staphylococcus aureus ATCC 29213, MIC recorded as 125

Known value: Staphylococcus aureus ATCC 29213 MIC of the compound O=C(/C=C/c1ccc(Cl)cc1)c1ccc(NS(=O)(=O)c2c(O)c3cc(Cl)ccc3oc2=O)cc1 equals 250

Bench note, Staphylococcus aureus ATCC 29213: COc1ccc(/C=C/C(=O)c2ccc(NS(=O)(=O)c3c(O)c4cc(C)ccc4oc3=O)cc2)cc1 , MIC reads 500

Summary line: Cc1ccc2oc(=O)c3c(c2c1)OC(/N=C/c1ccccc1)=C(C#N)C3c1ccc([N+](=O)[O-])cc1 (racemic) , Staphylococcus aureus ATCC 29213, reported MIC = 250

For Cc1ccc2oc(=O)c(S(=O)(=O)Nc3ccccc3)c(O)c2c1 on Staphylococcus aureus ATCC 29213, measured MIC was 1000

Measured on Staphylococcus aureus ATCC 29213, COc1cc(/C=N/C2=C(C#N)C(c3ccc([N+](=O)[O-])cc3)c3c(c4cc(C)ccc4oc3=O)O2)cc(OC)c1OC (racemic) has a documented MIC of 500

Assay Staphylococcus aureus ATCC 29213, sample Cc1ccc2oc(=O)c(S(=O)(=O)Nc3ccc(S(=O)(=O)Nc4nccs4)cc3)c(O)c2c1 , MIC read: 250

I looked up Cc1ccc2oc(=O)c3c(c2c1)OC(N)=C(C#N)C3c1ccco1 (racemic) and its MIC for Staphylococcus aureus ATCC 29213 was 500

// MIC (Staphylococcus aureus ATCC 29213) for Cc1ccc2oc(=O)c3c(c2c1)OC(/N=C/c1ccc(Cl)cc1Cl)=C(C#N)C3c1ccco1 (racemic) = 500

* * *

Examples of compounds with documented MIC follow.
System: Staphylococcus aureus ATCC 29213
Experiment: MIC, two-fold serial dilution, S. aureus
Assay type: cell-based
Conditions: ATCC29213, read-out: Minimum inhibitory concentration, SA
Source text: The new molecules were individually tested for their antimicrobial activity in vitro against standard bacteria strains from the American Type Culture Collection (ATCC), namely, Staphylococcus aureus ATCC 29213, Bacillus subtilis ATCC 6633, Bacillus megaterium ATCC 9885 (Gram-positive), Escherichia coli ATCC 2592, and Pseudomonas aeruginosa ATCC 27,953 (Gram-negative). […]
Answer in µg/mL, number only, no unit symbol.

Lab note: O=c1oc2ccc(Cl)cc2c(O)c1S(=O)(=O)Nc1ccc(S(=O)(=O)Nc2nccs2)cc1 [7e] gave MIC of 500

Short answer for COc1cc(/C=N/C2=C(C#N)C(c3ccco3)c3c(c4cc(C)ccc4oc3=O)O2)cc(OC)c1OC (racemic) [5d] : MIC was 1000

---
Lab book: MIC of Cc1ccc2oc(=O)c(S(=O)(=O)Nc3ccc(C(=O)/C=C/c4ccc([N+](=O)[O-])cc4)cc3)c(O)c2c1 [9b] noted as 500

// MIC lookup, compound = Cc1ccc2oc(=O)c3c(c2c1)OC(N)=C(C#N)C3c1ccc([N+](=O)[O-])cc1 (racemic) [2a] , result: 500

* * *

Recorded pIC50 values (COX-1 (Homo sapiens, UniProt P23219)) are given below.
pIC50 is defined as minus the log10 of a concentration measured in mol/L.

# lookup: COc1cc(/C=N/C2=C(C#N)C(c3ccco3)c3c(c4cc(C)ccc4oc3=O)O2)cc(OC)c1OC (racemic) [5d] on COX-1 (Homo sapiens, UniProt P23219), pIC50 = 4.57

Form field, pIC50 with COX-1 (Homo sapiens, UniProt P23219), item Cc1ccc2oc(=O)c3c(c2c1)OC(/N=C/N(C)C)=C(C#N)C3c1ccco1 (racemic) [4b] : 4.24

// compound O=c1oc2ccc(Cl)cc2c(O)c1S(=O)(=O)Nc1ccc(O)cc1 [8c] , assay COX-1 (Homo sapiens, UniProt P23219), pIC50 value: 4.81

I looked up Cc1ccc2oc(=O)c3c(c2c1)OC(N)=C(C#N)C3c1ccc([N+](=O)[O-])cc1 (racemic) [2a] and its pIC50 for COX-1 (Homo sapiens, UniProt P23219) was 3.93

For the compound Cc1ccc2oc(=O)c(S(=O)(=O)Nc3ccc(S(=O)(=O)Nc4ncccn4)cc3)c(O)c2c1 [7d] , the measured pIC50 on COX-1 (Homo sapiens, UniProt P23219) was 3.67

The measured pIC50 that Cc1ccc2oc(=O)c(S(=O)(=O)Nc3ccc(O)cc3)c(O)c2c1 [8d] showed for COX-1 (Homo sapiens, UniProt P23219) is 4.71

Test item Cc1ccc2oc(=O)c3c(c2c1)OC(/N=C/N(C)C)=C(C#N)C3c1ccc([N+](=O)[O-])cc1 (racemic) [4a] ; COX-1 (Homo sapiens, UniProt P23219); reported pIC50 was 4.90

So the reported pIC50 for Cc1ccc2oc(=O)c3c(c2c1)OC(/N=C/c1ccccc1)=C(C#N)C3c1ccco1 (racemic) [5b] , on COX-1 (Homo sapiens, UniProt P23219), turned out to be 3.67

Continuing:
COX-1 (Homo sapiens, UniProt P23219) pIC50 of Cc1ccc2oc(=O)c3c(c2c1)OC(N)=C(C(N)=O)C3c1ccc([N+](=O)[O-])cc1 (racemic) [3a] is 3.74

Reported COX-1 (Homo sapiens, UniProt P23219) pIC50 for item Cc1ccc2oc(=O)c3c(c2c1)OC(/N=C/c1ccccc1)=C(C#N)C3c1ccc([N+](=O)[O-])cc1 (racemic) [5a] was 2.95

The reported COX-1 (Homo sapiens, UniProt P23219) pIC50 of Cc1ccc2oc(=O)c3c(c2c1)OC(/N=C/c1ccc(Cl)cc1Cl)=C(C#N)C3c1ccc([N+](=O)[O-])cc1 (racemic) [5e] is 4.68

Record for Cc1ccc2oc(=O)c(S(=O)(=O)Nc3ccc(S(=O)(=O)Nc4nccs4)cc3)c(O)c2c1 [7f] under target or system COX-1 (Homo sapiens, UniProt P23219): pIC50 reported as 4.39

Recorded pIC50 for Cc1ccc2oc(=O)c3c(c2c1)OC(N)=C(C(N)=O)C3c1ccco1 (racemic) [3b] on COX-1 (Homo sapiens, UniProt P23219) was 5.11

// data source = paper PMC7397269
